biological target: human MCH-2R (Homo sapiens, UniProt Q969V1); assay: Aequorin bioluminescence functional assay, MCH-2R agonist activity
Sequence (Q969V1 whole entry): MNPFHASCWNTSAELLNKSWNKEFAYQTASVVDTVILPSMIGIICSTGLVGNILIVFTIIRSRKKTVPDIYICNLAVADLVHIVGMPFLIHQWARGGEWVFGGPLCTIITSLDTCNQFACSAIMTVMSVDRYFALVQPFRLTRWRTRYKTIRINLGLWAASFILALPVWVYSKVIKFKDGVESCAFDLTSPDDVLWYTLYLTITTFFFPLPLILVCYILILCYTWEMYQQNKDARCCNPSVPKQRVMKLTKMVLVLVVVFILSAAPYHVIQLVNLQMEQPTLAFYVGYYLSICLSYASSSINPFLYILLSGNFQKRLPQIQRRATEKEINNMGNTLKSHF
Where a SMILES comes first, the peptide text is derived from it. Bridges are numbered along the chain shown (N, C = ends). [ ]: non-standard residue; d: D form. Ava = NCCCCC(=O)O
Reported metric: EC50 (nM)
Write the number in nM without appending the unit.

(Q) Need EC50 of CC(=O)N[C@@H](CCCNC(=N)N)C(=O)N[C@H]1CSSC[C@@H](C(N)=O)NC(=O)CCCCNC(=O)CCCCNC(=O)[C@H](Cc2ccc(O)cc2)NC(=O)[C@H](C(C)C)NC(=O)[C@H](CCCNC(=N)N)NC(=O)CNC(=O)[C@H](CC(C)C)NC(=O)[C@H](C)NC1=O [SEQ. ID. NO. 22] (Ac-RCALGRVY[Ava][Ava]C-NH2; disulfide 2-11; C-terminus assumed) , thanks.
(A) 1830

====

Below, each of the compounds is paired with its reported EC50 value.
target: UniProtKB Q969V1; assay: Aequorin bioluminescence functional assay, MCH-2R agonist activity
Where a SMILES comes first, the peptide text is derived from it. Bridges are numbered along the chain shown (N, C = ends). [ ]: non-standard residue; d: D form. Ava = NCCCCC(=O)O

Compound: CSCC[C@@H]1NC(=O)[C@@H](NC(=O)[C@H](CCCNC(=N)N)NC(C)=O)CSSC[C@@H](C(N)=O)NC(=O)CCCCNC(=O)CCCCNC(=O)[C@H](Cc2ccc(O)cc2)NC(=O)[C@H](C(C)C)NC(=O)[C@H](CCCNC(=N)N)NC(=O)CCCCNC(=O)CCCCNC1=O [SEQ. ID. NO. 30] (Ac-RCM[Ava][Ava]RVY[Ava][Ava]C-NH2; disulfide 2-11 (inferred); C-terminus assumed)
EC50: > 10 µM

Please examine the following record next.
(Q) Need EC50 of CSCC[C@@H]1NC(=O)[C@@H](NC(=O)CCCCNC(=N)N)CSSC[C@@H](C(N)=O)NC(=O)CCCNC(=O)CCCNC(=O)[C@H](Cc2ccc(O)cc2)NC(=O)[C@H](C(C)C)NC(=O)[C@H](CCCNC(=N)N)NC(=O)CNC(=O)[C@H](CC(C)C)NC1=O , thanks.
(A) > 10 µM

====

target: UniProt:P97639; experiment: Aequorin bioluminescence functional assay, MCH-1R agonist activity
Sequence (P97639 whole entry): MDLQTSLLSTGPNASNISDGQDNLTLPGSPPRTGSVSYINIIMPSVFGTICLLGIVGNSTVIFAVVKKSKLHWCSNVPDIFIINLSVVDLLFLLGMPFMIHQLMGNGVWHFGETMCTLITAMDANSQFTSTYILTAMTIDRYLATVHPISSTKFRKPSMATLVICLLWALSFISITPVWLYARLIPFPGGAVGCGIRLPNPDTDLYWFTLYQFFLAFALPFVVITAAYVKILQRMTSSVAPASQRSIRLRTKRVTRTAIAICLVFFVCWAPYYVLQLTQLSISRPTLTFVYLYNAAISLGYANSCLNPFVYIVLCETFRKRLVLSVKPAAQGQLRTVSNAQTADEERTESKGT
pEC50: −log10 of the molar value. Where a SMILES comes first, the peptide text is derived from it. Bridges are numbered along the chain shown (N, C = ends). [ ]: non-standard residue; d: D form. The star is where a group is joined. Pentanoyl(5-guanidino) = NC(N)=NCCCCC(=O)*; dNle = CCCC[C@@H](N)C(=O)O; Nle = CCCC[C@H](N)C(=O)O; Ava = NCCCCC(=O)O
Reported metric: pEC50

Known results for compounds:
Compound: CCCC[C@@H]1NC(=O)[C@@H](NC(=O)CCCCNC(=N)N)CSSC[C@@H](C(N)=O)NC(=O)CCCCNC(=O)CCCCNC(=O)[C@H](Cc2ccc(O)cc2)NC(=O)[C@H](C(C)C)NC(=O)[C@H](CCCNC(=N)N)NC(=O)CNC(=O)[C@H](CC(C)C)NC1=O [SEQ. ID. NO. 16] ({Pentanoyl(5-guanidino)}-C[Nle]LGRVY[Ava][Ava]C-NH2; disulfide 1-10; C-terminus assumed)
Target or test system: UniProt:P97639
Reported value: < 5.00

Compound: CCCC[C@H]1NC(=O)[C@H](CC(C)C)NC(=O)[C@H](CCSC)NC(=O)[C@@H](NC(=O)[C@H](CCCNC(=N)N)NC(C)=O)CSSC[C@@H](C(N)=O)NC(=O)CCCCNC(=O)CCCCNC(=O)[C@H](Cc2ccc(O)cc2)NC(=O)[C@H](C(C)C)NC(=O)[C@H](CCCNC(=N)N)NC1=O [SEQ. ID. NO. 26] (Ac-RCML[dNle]RVY[Ava][Ava]C-NH2; disulfide 2-11; C-terminus assumed)
Target or test system: UniProt:P97639
Reported value: 6.26

Please examine the following record next.
(Q) Need pEC50 of CSCC[C@@H]1NC(=O)[C@@H](NC(=O)CCCCNC(=N)N)CSSC[C@@H](C(N)=O)NC(=O)CCCCNC(=O)CCCCNC(=O)[C@H](Cc2ccc(O)cc2)NC(=O)[C@H](C)NC(=O)[C@H](CCCNC(=N)N)NC(=O)CNC(=O)[C@H](CC(C)C)NC1=O [SEQ. ID. NO. 20] ({Pentanoyl(5-guanidino)}-CMLGRAY[Ava][Ava]C-NH2; disulfide 1-10; C-terminus assumed) , thanks.
(A) < 5.00
